Please go through the items and note down their TGI.
# Test system: HOP-92 NSCLC
# experiment.notes: NCI tumour cell line growth inhibition, 48 h
Write the number in µM without appending the unit.

Read off the recorded TGI for "C=CC1(c2ccc3ccccc3c2)OCC(CC)(CC)CO1" 52

Read off the recorded TGI for COc1cc(C2SCC(=O)N2c2ccc(-c3ccc(-n4c(-c5ccccc5)nc5ccccc5c4=O)cc3)cc2)ccc1O (stereo not given) 74.1

Read off the recorded TGI for "COc1ccc(-c2nc(N(C)C)c3ccccc3n2)cc1" 68.8

Read off the recorded TGI for "COC(=O)c1cc(C)n2c1CS[C@@H]2c1ccccc1" 76.8

Read off the recorded TGI for COc1cc(C2c3cc4c(cc3[C@H](NC(=O)c3cccs3)C3COC(=O)[C@H]23)OCO4)cc(OC)c1OC (stereo not given in full) 70.3

Read off the recorded TGI for "O=C(CSc1nc2ccc([N+](=O)[O-])cc2[nH]1)Nc1cccc(Cl)c1" 3.3

Read off the recorded TGI for C[C@@H]1CCC2[C@@H](C)[C@H](O[C@H]3O[C@@H]4O[C@@]5(C)CCC6[C@H](C)CCC([C@H]3C)[C@]64OO5)O[C@@H]3O[C@@]4(C)CCC1[C@@]23OO4 (stereo not given in full) 11.4

Read off the recorded TGI for "C=C1C(=O)O[C@H]2[C@H]1CC/C(C=Nc1ccc(C(F)(F)F)cc1N)=C\CC[C@@]1(C)O[C@@H]21" 29.7

Read off the recorded TGI for "COc1ccc2c(C)cc(N/N=C/c3sccc3C)nc2c1" 47.5

Read off the recorded TGI for "CC1(C)CC[C@]2(C(=O)n3ccnc3)CC[C@]3(C)[C@H](C(=O)C=C4[C@@]5(C)C=C(C#N)C(=O)C(C)(C)[C@@H]5CC[C@]43C)[C@@H]2C1" 0.102

Read off the recorded TGI for "CC(C)=CCC[C@](C)(O)[C@H]1CC[C@]2(C)[C@@H]1[C@H](O)C[C@@H]1[C@@]3(C)CC[C@H](O[C@@H]4O[C@H](CO)[C@@H](O)[C@H](O)[C@H]4O)C(C)(C)[C@@H]3CC[C@]12C" 33.7

Read off the recorded TGI for "C#CC[C@@H]1C[C@]2(C)[C@H]3CC[C@@H]4[C@H]5[C@H](C(=C)C)CC[C@]5(C(=O)O)CC[C@@]4(C)[C@]3(C)CC[C@H]2C(C)(C)[C@H]1O" 4.18

Read off the recorded TGI for Nc1ncnc2c1c(-c1cccc(OCc3ccccc3)c1)cn2C1CC(CN2CCCC2)C1 (stereo not given) 0.867

Read off the recorded TGI for "C[N+](C)(C)CCC(=O)N1C/C(=C\c2ccccc2)C(=O)/C(=C/c2ccccc2)C1" 38.7

Read off the recorded TGI for "COc1ccc(-c2cn(-c3ccc(Cl)cc3)c(=S)[nH]2)cc1OC" 7.63

Read off the recorded TGI for "COc1ccc(C(=O)/C=C2\c3ccccc3C(=O)N2C)cc1" 75.7
